Sourced from patent US20240109853A1

- tested_on: UniProtKB Q96QP1
- Sequence (Q96QP1 whole entry): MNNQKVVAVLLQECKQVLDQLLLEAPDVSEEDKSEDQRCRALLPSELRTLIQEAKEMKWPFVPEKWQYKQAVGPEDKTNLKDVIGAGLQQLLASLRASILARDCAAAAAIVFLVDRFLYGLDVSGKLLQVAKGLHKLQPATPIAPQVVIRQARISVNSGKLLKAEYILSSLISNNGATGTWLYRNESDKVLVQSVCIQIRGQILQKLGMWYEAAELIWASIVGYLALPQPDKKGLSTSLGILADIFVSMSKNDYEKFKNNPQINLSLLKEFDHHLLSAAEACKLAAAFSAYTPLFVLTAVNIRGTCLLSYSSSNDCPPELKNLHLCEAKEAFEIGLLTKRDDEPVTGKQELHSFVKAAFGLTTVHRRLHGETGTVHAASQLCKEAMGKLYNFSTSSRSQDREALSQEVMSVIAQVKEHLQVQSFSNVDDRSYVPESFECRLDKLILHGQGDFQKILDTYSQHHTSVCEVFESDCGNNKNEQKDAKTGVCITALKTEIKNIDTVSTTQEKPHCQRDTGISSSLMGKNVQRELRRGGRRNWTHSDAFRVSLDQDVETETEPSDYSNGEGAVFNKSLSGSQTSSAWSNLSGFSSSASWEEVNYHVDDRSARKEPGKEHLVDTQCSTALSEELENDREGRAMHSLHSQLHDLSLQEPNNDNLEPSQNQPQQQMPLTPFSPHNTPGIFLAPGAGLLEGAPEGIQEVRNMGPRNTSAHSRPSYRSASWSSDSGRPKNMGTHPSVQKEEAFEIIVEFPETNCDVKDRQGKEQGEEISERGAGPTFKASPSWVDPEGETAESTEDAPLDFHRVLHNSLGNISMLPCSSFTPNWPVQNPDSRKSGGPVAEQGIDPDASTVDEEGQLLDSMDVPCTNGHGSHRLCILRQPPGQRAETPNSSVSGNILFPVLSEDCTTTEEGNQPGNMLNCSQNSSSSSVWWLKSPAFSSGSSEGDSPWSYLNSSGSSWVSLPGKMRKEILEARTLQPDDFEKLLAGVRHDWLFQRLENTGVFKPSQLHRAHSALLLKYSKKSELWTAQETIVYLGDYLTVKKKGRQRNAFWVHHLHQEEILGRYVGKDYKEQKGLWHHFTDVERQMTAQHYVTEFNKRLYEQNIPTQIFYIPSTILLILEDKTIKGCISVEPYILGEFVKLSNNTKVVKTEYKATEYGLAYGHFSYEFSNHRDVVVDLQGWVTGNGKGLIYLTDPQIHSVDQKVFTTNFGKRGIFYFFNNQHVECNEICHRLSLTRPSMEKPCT
- assay_explanation: ALPK1 in vitro kinase assay (HTRF of TIFA phosphorylation)
- Assay type: biochemical
- Excerpt: In embodiments, a compound of Formula I, or a subembodiment described herein, is an inhibitor of ALPK1 as measured, for example, in an in vitro kinase assay, or an assay designed to measure the activation of downstream targets of ALPK1 pathway activation, for example NFkB transcriptional activation and the secretion of proinflammatory cytokines and chemokines, such as IL-8, which is also referred to as CXCL-8. […]
recorded_endpoint: IC50 (nM)
Answer in nM, number only, no unit symbol.

Please review the entries below; each comes with its answer.
> print(dat)
                                   molecule         tested.on  recorded.measurement
1  CC1CNCCN1c1ccc(CNC(=O)Nc2nc(C(C)(C)c3ccc(Br)cc3)cs2)cc1 (stereo not drawn)  UniProtKB Q96QP1                    73
2  CC(O)(c1ccc(Br)cc1)c1csc(NC(=O)NCc2ccc(N3CCNCC3)c(F)c2)n1 (stereo not drawn)  UniProtKB Q96QP1                   176

[Q] Indicate its recorded IC50; the molecule in question is `CC(C)(c1ccc(Br)cc1)c1csc(NC(=O)NCc2cnc(N3CCCNCC3)nc2)n1`
[A] 135

###

- Tested on: ALPK1-dependent NFκB reporter gene activation in HEK293 cells stably expressing an NF-kB reporter (G9 cells)
- assay_explanation: NFκB gene reporter alkaline phosphatase assay
- Format: cell-based
- study_conditions: Homo sapiens, HEK293; read-out: NFkB assay IC50
recorded_endpoint: pIC50
Entry type: numeric. Quantity: pIC50, the -log10 of concentration in molar units.

Some compounds with recorded pIC50:
> print(dat)
                                   compound  recorded.endpoint  recorded.measurement
1  CC(C)(c1ccc(Br)cc1)c1csc(NC(=O)NCc2cnc(N3CCNCC3)nc2)n1              pIC50                  5.84
2  COc1ccc(C(C)(C)c2csc(NC(=O)NCc3cnc(NCCO)c(F)c3)n2)cc1              pIC50                  5.99
3  C#C[C@@](C)(c1ccc(Br)cc1)c1csc(NC(=O)NCC(C)(C)O)n1 (stereo in doubt)              pIC50                  6.08
4  COc1ccc(C(C)(C)c2csc(NC(=O)NC(C)c3ccc(N4CCNCC4)nc3)n2)cc1 (stereo not drawn)              pIC50                  6.17
5  CC(O)(c1ccc(Br)cc1)c1csc(NC(=O)NCc2ccc(N3CCNCC3)c(F)c2)n1 (stereo not drawn)              pIC50                  5.97
6  COc1ccc(C(C)(C)c2csc(NC(=O)NCc3ccc(N4CCNCC4)c(OC(C)C)c3)n2)cc1              pIC50                  5.98

[Q] Give the measured pIC50 for `COc1ccc(C(C)(C)c2csc(NC(=O)NCc3ccc(N4CCNCC4)c(C(N)=O)c3)n2)cc1`
[A] 5.32

[Q] Report pIC50 for `CC(C)(c1ccc(Br)cc1)c1csc(NC(=O)NCc2ccc(N3CCC(N)CC3)cc2)n1`
[A] 5.72

[Q] Please give measured pIC50 of the following entry: `COc1ccc(C(C)(C)c2csc(NC(=O)NCCF)n2)cc1`
[A] 5.86

[Q] Name the recorded pIC50 of the compound listed here: `O=C(NCCO)Nc1nc(C2(c3ccc(Br)cc3)CCC2)cs1`
[A] 5.54

[Q] Input `CC(C)Oc1cc(CNC(=O)Nc2nc(C(C)(C)c3ccc(Br)cc3)cs2)ccc1N1CCNCC1` , output reported pIC50.
[A] 5.62

[Q] Return pIC50 for the following compound: `CC(C)(c1ccc(Br)cc1)c1csc(NC(=O)NCc2cnc(N3CCC(O)CC3)nc2)n1`
[A] 5.21

[Q] State, in one line, measured pIC50 of C#C[C@@](C)(c1ccc(Cl)cc1)c1csc(NC(=O)NC(C)(C)CO)n1 (stereo in doubt)
[A] 5.52

[Q] Give the value of pIC50 reported for the following: C#CC(C)(c1ccc(Cl)cc1)c1csc(NC(=O)N2CCC(CO)C2)n1 (stereo not drawn)
[A] 5.71

[Q] Provide pIC50 value for the following compound: C#CC(C)(c1ccc(Br)cc1)c1csc(NC(=O)NCCN2CCOCC2)n1 (stereo not drawn)
[A] 6.05
